target_or_system: USP1 (Homo sapiens, UniProt O94782)
Sequence (O94782 whole entry): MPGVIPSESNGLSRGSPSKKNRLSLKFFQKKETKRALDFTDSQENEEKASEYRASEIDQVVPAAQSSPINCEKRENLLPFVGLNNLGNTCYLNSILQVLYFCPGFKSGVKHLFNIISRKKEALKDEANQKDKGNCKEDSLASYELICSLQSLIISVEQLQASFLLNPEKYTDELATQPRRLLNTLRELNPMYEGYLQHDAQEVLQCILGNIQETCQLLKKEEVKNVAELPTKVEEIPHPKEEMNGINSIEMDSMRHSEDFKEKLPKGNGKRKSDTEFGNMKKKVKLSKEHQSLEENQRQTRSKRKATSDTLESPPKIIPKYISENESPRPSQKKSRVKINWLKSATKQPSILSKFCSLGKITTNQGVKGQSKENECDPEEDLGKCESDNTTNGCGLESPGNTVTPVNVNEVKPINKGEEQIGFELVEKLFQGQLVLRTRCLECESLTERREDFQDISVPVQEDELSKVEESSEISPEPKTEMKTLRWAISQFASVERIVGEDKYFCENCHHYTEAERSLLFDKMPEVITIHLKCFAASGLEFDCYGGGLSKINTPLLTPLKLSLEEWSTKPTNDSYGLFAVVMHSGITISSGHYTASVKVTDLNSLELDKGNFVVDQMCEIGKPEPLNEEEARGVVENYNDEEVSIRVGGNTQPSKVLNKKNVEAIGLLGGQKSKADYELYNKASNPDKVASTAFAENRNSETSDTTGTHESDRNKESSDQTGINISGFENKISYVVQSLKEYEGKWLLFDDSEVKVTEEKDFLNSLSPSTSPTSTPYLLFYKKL
Sequence (Q8TAF3 whole entry partner): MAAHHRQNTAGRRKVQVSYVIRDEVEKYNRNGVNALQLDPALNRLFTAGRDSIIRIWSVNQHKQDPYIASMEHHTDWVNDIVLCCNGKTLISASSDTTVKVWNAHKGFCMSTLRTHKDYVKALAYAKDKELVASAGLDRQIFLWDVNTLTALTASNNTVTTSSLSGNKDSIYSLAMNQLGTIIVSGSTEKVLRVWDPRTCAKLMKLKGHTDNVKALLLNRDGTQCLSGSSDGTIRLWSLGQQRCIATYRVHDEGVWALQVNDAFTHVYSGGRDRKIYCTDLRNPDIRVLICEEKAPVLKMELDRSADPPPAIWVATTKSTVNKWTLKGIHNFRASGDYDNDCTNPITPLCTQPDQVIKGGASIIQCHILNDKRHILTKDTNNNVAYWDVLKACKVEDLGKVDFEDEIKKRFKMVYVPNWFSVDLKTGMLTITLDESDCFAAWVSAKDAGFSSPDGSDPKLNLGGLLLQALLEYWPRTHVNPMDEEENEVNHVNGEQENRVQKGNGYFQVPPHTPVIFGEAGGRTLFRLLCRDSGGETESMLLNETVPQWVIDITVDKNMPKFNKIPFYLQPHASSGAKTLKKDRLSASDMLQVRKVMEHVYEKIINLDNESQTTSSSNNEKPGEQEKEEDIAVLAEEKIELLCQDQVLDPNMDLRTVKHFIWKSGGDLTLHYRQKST
assay_remarks: Biochemical Assay for USP1 Inhibition (Ub-Rho 110 fluorescence)
conditions: Table 6, additional compounds; 30 min preincubation, Enzyme 0.025 nM, Substrate Ub-Rho 110 25 nM; read-out: IC50

{"molecule": "Cc1nc(-c2cccnc2C(C)C)c2n1CCN(c1ccc(-c3nc(C(F)(F)F)cn3C)cc1)C2=O [Compound C-5]", "IC50": "> 25 µM"}
{"molecule": "Cc1nc(-c2cccnc2C(C)C)c2n1CCN(C(=O)c1ccc(-c3ccnn3C(C)C)nc1)C2 [Compound C-6]", "IC50": "> 25 µM"}
{"molecule": "Cc1nc(-c2cccnc2C(C)C)c2n1CC(=O)N(c1ccc(-c3nc(C(F)(F)F)cn3C)cc1)C2 [Compound C-3]", "IC50": "> 25 µM"}
{"molecule": "Cc1nc(-c2cccnc2C(C)C)c2n1CCCN(Cc1ccc(-c3nc(C(F)(F)F)cn3C)cc1)C2 [Compound C-2]", "IC50": "1 to 10 µM"}
{"molecule": "Cc1nc(-c2ccccc2C(C)C)n2cc(N3CCC(c4nc(C(F)(F)F)cn4C)CC3)ccc12 [Compound C-4]", "IC50": "> 25 µM"}

###

Catalogue of IC50 values
target_or_system: USP1 (Homo sapiens)
assay_remarks: Biochemical Assay for USP1 Inhibition (Ub-Rho 110 fluorescence)
conditions: Table 5; 30 min preincubation, Enzyme 0.025 nM, Substrate Ub-Rho 110 25 nM; read-out: IC50 (μm)
metric_name: IC50

{"compound": "Cc1nc(-c2cccnc2C(C)C)c2n1CCN(c1ccc(C(=O)N3CCC[C@@H]3C)cc1)C2", "metric_name": "IC50", "result": "1 to 10 µM"}
{"compound": "Cc1nc(-c2cccnc2C(C)C)c2n1CCN(c1cnc(C#N)nc1)C2", "metric_name": "IC50", "result": "> 25 µM"}
{"compound": "COCCn1cc(-c2ccc(N3CCn4c(C)nc(-c5cccnc5C(C)C)c4C3)cc2)cn1", "metric_name": "IC50", "result": "10 to 25 µM"}
{"compound": "Cc1nc(-c2cccnc2C(C)C)c2n1CCN(c1ccc(F)cc1)C2", "metric_name": "IC50", "result": "> 25 µM"}
{"compound": "Cc1nc(-c2cccnc2C(C)C)c2n1CCN(c1cccc(C(=O)N3CCC[C@H]3C)c1)C2", "metric_name": "IC50", "result": "> 25 µM"}
{"compound": "Cc1cnc(-c2ccc(N3CCn4c(C)nc(-c5cccnc5C(C)C)c4C3)cc2)o1", "metric_name": "IC50", "result": "≤ 1 µM"}
{"compound": "Cc1nc(-c2cccnc2C(C)C)c2n1CCN(c1ccc(-c3nc(C4CC4)cn3C)cc1)C2", "metric_name": "IC50", "result": "≤ 1 µM"}
{"compound": "Cc1nc(-c2cccnc2OCC(F)(F)F)c2n1CCN(c1ccc(-c3nc(C(F)(F)F)cn3C)cc1)C2", "metric_name": "IC50", "result": "≤ 1 µM"}
{"compound": "Cc1ccc(N2CCn3c(C)nc(-c4cccnc4C(C)C)c3C2)cc1", "metric_name": "IC50", "result": "10 to 25 µM"}
{"compound": "Cc1nc(-c2cccnc2C(C)C)c2n1CCN(c1ccc(C3CNC(=O)C3)cc1)C2 (centres unmarked)", "metric_name": "IC50", "result": "> 25 µM"}
{"compound": "Cc1nc(-c2cccnc2C(C)C)c2n1CCN(c1cccc3[nH]ccc13)C2", "metric_name": "IC50", "result": "> 25 µM"}
